# Tested on: CD4+ T-cells and dendritic cells
# protocolSummary: I-MUNE assay: CD4+ T-cell proliferation to 15-mer peptide sets presented by dendritic cells
# Format: cell-based, human
# Design: scale not given here
# studyConditions: Table 3; Stanford and Sacramento donors
measuredMetric: Structure Value

Exam item: Can you look up the measured Structure Value of ALCALASE ®: ALCALASE® enzyme, commercially available from Novo, Swissprot accession number P00780 (protein, UniProt P00780 106-379, looked up) Subtilisin Carlsberg: AQTVPYGIPLIKADKVQAQGFKGANVKVAVLDTGIQASHPDLNVVGGASFVAGEAYNTDGNGHGTHVAGTVAALDNTTGVLGVAPSVSLYAVKVLNSSGSGSYSGIVSGIEWATTNGMDVINMSLGGASGSTAMKQAVDNAYAKGVVVVAAAGNSGSSGNTNTIGYPAKYDSVIAVGAVDSNSNRASFSSVGAELEVMAPGAGVYSTYPTNTYATLNGTSMASPHVAGAAALILSKHPNLSASQVRNRLSSTATYLGSSFYYGKGLINVEAAAQ for me?
Marked response: 0.72

Reference source for all entries: patent US20080220450A1
